Assay: yeast display, Sf9 membrane polyspecificity reagent, FACS + sequencing; frameworks hold sequencing errors
measured.metric: polyreactivity (PSR sort gate)

The following sequences have reported results that may help.
# sequence QVQLVESGGGVVQAGGSLRLSCAASGSTFGYYAMGWYRQAPGKERELVAAISQGAGRTYFADSVKGRFTISRDIAKNTVYLQMNSLKPEDTAVYYCAGSVTVHRWAYGYCGQGTQVTVSS ; its polyreactivity (PSR sort gate) = high polyreactivity

# sequence QVQLVESGGGLVQAGGSLRLSCAASGRTFYSYAMGWYRQAPGKERELVASISSSGASTYYADSVKGRFTISRDNAKNTVYLQMNSLKPEDTAVYYCNAVWRTSFITIYGFDYWGQGTQVTVSS ; its polyreactivity (PSR sort gate) = high polyreactivity

# sequence QVQLVESGGGLVQAGGSLRLSCAASGRTFGRYAMGWYRQAPGKERELVATITSGGSTNYADSVKGRFTISRDNAKNTVYLQMNSLKPEDTAVYYCAAEFSPSRWAYSEGALRYHYWGQGTQVTVSS ; its polyreactivity (PSR sort gate) = low polyreactivity

# sequence QVQLVESGGGLVQAGGSLRLSCAASGRTSVVNAMGWYRQAPGKERELVAAITSGGSTHYADSVKGRFTISRDNAKNTVYLQMNSLKPEDTAVYYCNARDRRRTNLLDYWGQGTQVTVSS ; its polyreactivity (PSR sort gate) = low polyreactivity

Proceeding to the next sequence to report its polyreactivity (PSR sort gate).
# sequence QVQLVESGGGLVQAGGSLRLSCPASGSIFQYYAMGWYRQAPGKERELVAAISSGGRTNYADSVKGRFTISRDNAKNTVYLQMNSLKPEATAVYYCAAARYYYQVYRWEYDYWGQGTQVTVSS ; its polyreactivity (PSR sort gate) = high polyreactivity

* * *

Assay: yeast display, Sf9 membrane polyspecificity reagent, FACS + sequencing; frameworks hold sequencing errors
measured.metric: polyreactivity (PSR sort gate)

# sequence QVQLVESGGGLVQAGGSLRLSCAASGFTFWVYAMGWYRQAPGKERELVADISSGGSTNYADSVKGRFTISRDNAKNTVYLQMNSLKPEDTAVYYCATYRARWTWYTRYDYWGQGTQVTVSS ; its polyreactivity (PSR sort gate) = high polyreactivity

# sequence QVQLVESGGGLVQAGGSLRLICAASGRTFVYYAMGWYRQAPGKERELVAAISGGGSKTYADSVKGRFTISRDNAKYTVYLLMNSLKPEDTAVYYCGKSVWRRYYYWGQGNQVTVSS ; its polyreactivity (PSR sort gate) = high polyreactivity

# sequence QVQLVESGGGLVQAGGSLRLSCAASGFIFGVYAMGWYRQAPGKERELVASISVSGDDTYYADSVKGRFTISRDNAKNTVYLQMNSLKPEDTAVYYCAADYPGGIYYDDYLYDMDYWGQGTQVTVSS ; its polyreactivity (PSR sort gate) = low polyreactivity

# sequence QVQLVESGGGLVQAGGSLRLSCAGSGRIFDLYTMGWYRQAPGKERELVAAIRWSDGSTYYADSVKGRFTISRDNAKNTVYLQINSLKPEDTAVYYCAADTRTSYYNDDYDYWGQGTQVTVSS ; its polyreactivity (PSR sort gate) = low polyreactivity

# sequence QVQLVESGGGLVQAGGSLRLSCAASGFISAYNAMGWYRPAPGKERELVAAITSGATTKYADSVKGRFTISRDNAKNTVYFQMHSLKPEDTAVYYCAAAPKRRYYVHSGGAYGYWGQGTQVTVSS ; its polyreactivity (PSR sort gate) = high polyreactivity

# sequence QVQLVESGGGLVQAGGSLRLSCAASGSTFTVYAMGWYRQAPGKEREFVAAITRRGGNTYYADSVKGRFTISRDNAKNTVYLQMNSLKPEDTAVYYCNADSPLNAYYGGRELDYWGQGTQVTVSS ; its polyreactivity (PSR sort gate) = high polyreactivity

# sequence QVQLVESGGGKVQEGGSLRISCAASGSIFITYAMGWYRQAPGKERELVAAIRDSGDRTYYADSVKGRFTISRDNAKNTVYFQMNSLKPEDTAVYYCNARCQEPLKYDYWGQGTQVIVSS ; its polyreactivity (PSR sort gate) = low polyreactivity

# sequence QVQLVESGGGLVQAGGSLRLSCAASGSILDGYVMGWYRQAPGKDRELVAAISTNSDRTYYADSVKGRFTISRDNAKNTVDLQMNSLKPEDTAVYYCNARKLRRAGFPYDYWGQGTQVTVSS ; its polyreactivity (PSR sort gate) = high polyreactivity

# sequence QVQLVESGGGVVQAGGSLRLSCAASGRNFGHYTMGWYRQAPGIERELVARISQSGGSTRYADSVKGRFTISRDNAKNTVYLQMNSLKPEDTAVYYWATYRRHFFYFAIPGYSSAYEYSGQGTQVTVSS ; its polyreactivity (PSR sort gate) = high polyreactivity

# sequence QVQLVESGGGLVQAGGSHRVSCAASGYIFLHYAMGWYRQATGKEREFVAAITYSGGNTYYADSVKGRFTISRDNAKNTVYLQMISLKPEDTAGYYCAKTRIYSKHWTEPYFYRVDSWGQGTQVTVSS ; its polyreactivity (PSR sort gate) = high polyreactivity

More entries:
# sequence QVQLVESGGGLVQAGGSLRLSCAASGRTFYRYAMGWYRQAPGKERELVAAITASGGSTYYADSVKGRFTISRDNAKNTVYLQMNSLKPEDTAVYYCAKGGKSRYSTWHGDYWGQGTQVTVSS ; its polyreactivity (PSR sort gate) = high polyreactivity

# sequence QVQLVESGGGLVQAGGSLRLSCAASGLIYTPYAMGWYRQAPGKERELVAAINYGGSRTYYADSVKGRFTISRDNAKNTVYLQMNSLKQEDTAVYYCNKPGNYVWRRSWDFDYWGQGTQVTVSW ; its polyreactivity (PSR sort gate) = high polyreactivity

# sequence QVQLVESGGGLVQAVVSLRLSCAASGSIFGGYAMGWYRQAPGKERELVAAISYRGASTYYADSVKGRFTISRDNAKNTVYLQMNSLKPEDTAVYYCAVAARTRARVLYGYDYWGQGTQVTVSS ; its polyreactivity (PSR sort gate) = low polyreactivity

# sequence QLQLVESGGVLVQAGGSLRLSCAASGTFYGYVMGWYRQAPGKERELGASINWSGGSTNYADSVKGRFTISRDNAKNTVFFQMNSRKPEDTAVYYCNADWGWGAYDYWGQGTQVTVSS ; its polyreactivity (PSR sort gate) = low polyreactivity

# sequence QVQLVESGGGLVQAGGSLRLSCAASGRIFYFYAMGWYRQAPGKEREMVASISYSGGNTYYADSVKGRFTISRDNAKNTVYLQMNSLKPEDTAVYYCNVLPNTGARGYYYWGQGTQVTVSS ; its polyreactivity (PSR sort gate) = low polyreactivity

# sequence QVQLVESGGGLVQAGGSLRLRCAASGRIFLPYAMGWYRQAPGKERELVAGISSRGSTKYADSVKGRFTISRDNAKNTVYLQMNTLKPEETAVYYCNKVKKSDKFNNFSNDYWGQGTQVTVSS ; its polyreactivity (PSR sort gate) = high polyreactivity

# sequence QVQLVESGGALVQAGGSLRLSCAASGFIFPYYAMGWYRQAPGKERELVAAITFSATRTYYADSVKGRFTISRDNAKNTVYLQMNSLKPEDTAVYYCAVGSASSGYEYDYWGQGTQVTVSS ; its polyreactivity (PSR sort gate) = low polyreactivity

# sequence QVQLVESGGGLVQAGGSLRLSCAASGSIFRYYAMGWYRQAPGKERELVAAISWDGGTTYYADSVKGRFTISRDNAKNTVYLQMNSLKPEDPAVYYCNVEFPLSSYGYDYWGQGTQVTVSS ; its polyreactivity (PSR sort gate) = low polyreactivity

# sequence QVQLVESGGGLVQAGGSLRLSCAASGRTFRRNAMGSYRQAPGKERELVATITGGGTNYADSVKGRFTISRDNAKNTVYLQMNSLKPEDTAVYYCAVGTRFYVPRRFDYWGQGTQVTVSS ; its polyreactivity (PSR sort gate) = high polyreactivity

# sequence QVQLVESGGGLVQAGGSLRLSCAASGNTFRFYTMGWYRQAPGKERELVAAINSSGRTNYADSVKGRFTISRDNAKNTVYLQMNSLKPEDTAVYYCAADYYQWSSFLGVYEYDYWGQGTQVTVSS ; its polyreactivity (PSR sort gate) = low polyreactivity

# sequence QVQLVESGGGLVQAGGSLRLSCAASGSTFTAYAMGWYRQAPGKERELVADISDSGGSTYYADSVKGRFTISRDNAKNTVYLQMNSLKPEDTAVYYCAAAWVFKKGFGTEMDYWGQGTQVTVSS ; its polyreactivity (PSR sort gate) = low polyreactivity
